Assay: reduced mouse 2C T cell binding to pMHC/ICAM-1 vesicles – MLPCN validation set, flow cytometry, LFA-1/ICAM-1 modulator project, pilot screen (AID 2523);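 also: mean PE anti-B7-1 fluorescence of CD8+ cells relative to row control; 100% = QL9-loaded vesicles with DMSO vehicle in the same plate row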
Conditions: 2C mouse CD8+ T cells, at 7 µM, stronger effect = lower value
Here the recorded vesicle binding response is given for each entry.
Measured Endpoint: vesicle binding response (%)

- CCOc1ccc2ccccc2c1CNc1nnnn1C: 1400
- CC(=O)N1CCN2C(=O)C1CCCC(=O)c1cc(C(C)C)ccc12 (configuration not stated): 234
- CC(C)=CCC/C(C)=C/CC/C(C)=N/O: 199
- COc1cc(OC)c(-c2nc3cnccc3n2C)cc1OC: 192
- COc1cccc(C2CC(=O)C3=C(C2)Nc2ccccc2N(C(=O)CCC(=O)O)C3c2ccc(F)cc2)c1 (configuration not stated): 213
- COc1ccc(C(=O)COc2ccc(F)cc2)c(O)c1: 253
- O=c1c(-c2ccccc2)c(O)c2cccc3c2n1CCC3: 186
- CC(=O)N[C@@H](CS)C(=O)O: 159
- Fc1ccccc1CNCCC(Cc1ccccc1)c1ccc2c(c1)OCO2 (configuration not stated): 99.6
- CCc1cc(C(N)=S)ccn1: 166
- Cc1cc(=O)c2c(O)c(O)ccc2o1: 30
- O=C(CCSc1ccccc1)N1CCCC1: 193
- O[C@H]1COC2C1OC[C@@H]2O (some centres not stated): 204
- COc1cccc(OCc2nnc(-c3cccs3)o2)c1: 248
- CCCN(CCC)C(=O)C(CCC(=O)O)NC(=O)c1ccccc1 (configuration not stated): 977
- Cc1ccc2[nH]c3c(=O)n(CCc4cnc[nH]4)cnc3c2c1: 172
- CC(=O)[C@@]1(O)CC[C@H]2[C@@H]3C[C@H](C)C4=CC(=O)CC[C@]4(C)[C@H]3CC[C@@]21C: 363
- CCOCCCNCc1cn(-c2ccc(F)cc2F)nc1-c1ccccc1C: 200
- NS(=O)(=O)c1ccc(CCNC(=O)C2CCCN2C(=O)OCc2ccccc2)cc1 (configuration not stated): 214
- CCOCCn1c(C(C)O)nc2ccccc21 (configuration not stated): 278
- O=C(O)c1ccc(N2C(=O)/C(=C\c3ccccc3)N=C2c2ccccc2)cc1: 120
- Cc1ccc(S(=O)(=O)N[C@@H](Cc2ccccc2)C(=O)CCl)cc1: 101

###

Molecular target: AP-2 complex subunit beta (Homo sapiens) (UniProt P63010)
Sequence (P63010 whole entry, looked up, one chain of several): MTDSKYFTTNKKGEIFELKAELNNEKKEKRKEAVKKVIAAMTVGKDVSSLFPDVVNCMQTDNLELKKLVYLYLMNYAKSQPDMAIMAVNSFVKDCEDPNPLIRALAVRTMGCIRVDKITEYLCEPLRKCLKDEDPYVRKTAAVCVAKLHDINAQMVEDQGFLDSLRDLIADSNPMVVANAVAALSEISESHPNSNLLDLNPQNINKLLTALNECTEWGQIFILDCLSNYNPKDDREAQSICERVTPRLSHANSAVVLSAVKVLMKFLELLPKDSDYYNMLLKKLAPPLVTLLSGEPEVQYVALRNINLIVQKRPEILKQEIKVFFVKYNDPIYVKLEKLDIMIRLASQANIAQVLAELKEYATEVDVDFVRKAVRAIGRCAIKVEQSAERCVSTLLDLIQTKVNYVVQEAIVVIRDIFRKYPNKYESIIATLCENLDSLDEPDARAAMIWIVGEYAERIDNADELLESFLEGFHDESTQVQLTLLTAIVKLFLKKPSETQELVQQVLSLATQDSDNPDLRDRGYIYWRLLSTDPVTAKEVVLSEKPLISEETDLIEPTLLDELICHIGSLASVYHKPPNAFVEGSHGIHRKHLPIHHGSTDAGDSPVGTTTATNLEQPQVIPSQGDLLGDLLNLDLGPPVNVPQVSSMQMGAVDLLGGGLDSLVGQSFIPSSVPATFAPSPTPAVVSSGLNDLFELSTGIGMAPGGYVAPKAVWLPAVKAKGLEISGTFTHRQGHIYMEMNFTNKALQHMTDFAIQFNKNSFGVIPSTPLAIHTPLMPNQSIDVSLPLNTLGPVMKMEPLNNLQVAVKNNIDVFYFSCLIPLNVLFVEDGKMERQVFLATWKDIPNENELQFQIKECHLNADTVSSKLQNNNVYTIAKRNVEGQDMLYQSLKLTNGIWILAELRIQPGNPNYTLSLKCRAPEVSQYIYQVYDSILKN
Test: beta-arrestin/AP2 interaction blockers – biochemical, validation set, GST-AP2 beads, flow cytometry, pilot screen (AID 504541);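 also: AP2 carries R879A mutation and is captured from E. coli lysate; bead-bound FITC arrestin peptide fluorescence measuring arrestin peptide binding to AP2; 0% = DMSO wells and 100% = excess unlabeled arrestin peptide control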
Conditions: FITC arrestin peptide, at 10 µM, stronger effect = higher value, AP2 beta2 appendage fragment, R879A mutant
Measured Endpoint: inhibition (%)

• CCO/C([O-])=N/c1c[n+](N2CCOCC2)no1 = -14.8
• Cc1ccc(Cl)c(OCCCN(C)Cc2ccccc2)c1 = 0.6
• CC1(C)c2ccccc2N2CC(=O)NC21/C=C/c1ccco1 (configuration not stated) = -7.94
• Cc1ccc(N2CCN(C(=S)c3ccc(-c4cccc([N+](=O)[O-])c4)o3)CC2)cc1 = 1.79
• COc1cc2c(cc1OC)C1(CCCC1)CNC2c1cccc([N+](=O)[O-])c1 (configuration not stated) = -2.35
• COc1cccc(N2C(=O)CC(c3c[nH]c4ccccc34)C2=O)c1 (configuration not stated) = 10
• CC(=O)Nc1ccccc1C(=O)C(=O)Nc1ccccc1 = 35.2
• C1COC(NC(C2CC2)C2CC2)=N1 = 11.9
• COc1ccc(N2CCN(C(=S)NCc3ccccc3)CC2)cc1 = 30.1
• C/C(CCc1oc2ccc(Cl)cc2c1-c1ccc(C)o1)=N\O = 4.9
• NS(=O)(=O)c1ccc(CCNC(=O)C2CCCN2C(=O)OCc2ccccc2)cc1 (configuration not stated) = -5.77
• COc1cc(C(=O)N/C(=C\c2cn(C)c3ccccc23)C(=O)NCCCO)cc(OC)c1OC = -0.03
• COc1ccc2cc(C(=O)OC(C)C)sc(=O)c2c1OC = -1.55
• O=C1C(Cc2ccccc2)NC(=S)N1c1ccccc1 (configuration not stated) = -7.42
• CCC(=O)c1ccc(OCc2ccc(C(=O)OC)cc2)cc1 = 10.4
• C/C=C(/C(=C/C)c1ccc(O)cc1)c1ccc(O)cc1 = 13.1
• N/C(=N\OC(=O)CCCOc1ccc(Cl)cc1Cl)c1ccccn1 = -27.4
• CCOC(=O)C1=C(N)Oc2c(c(=O)[nH]c3ccccc23)C1c1ccccc1 (configuration not stated) = 1.81
• O=C(NCc1ccc2c(c1)OCO2)c1ccc2c(c1)OCCO2 = -6.32
• COc1cc(SC)ccc1C(=O)NC(C)C = -4.67
• CC1(C)O[C@@H]2C[C@H]3[C@@H]4C[C@H](F)C5=CC(=O)CC[C@]5(C)[C@H]4[C@@H](O)C[C@]3(C)[C@]2(C(=O)CO)O1 = -4.49
• Cc1c(OCC(F)(F)F)ccnc1CS(=O)c1nc2ccccc2[nH]1 (configuration not stated) = -4.09
• Clc1cc(-c2ccc(/C=N/n3cnnc3)o2)ccc1Br = 0.75
• CC[C@]1(O)CC2CN(CCc3c([nH]c4ccccc34)[C@@](C(=O)OC)(c3cc4c(cc3OC)N(C=O)[C@H]3[C@@](O)(C(=O)OC)[C@H](OC(C)=O)[C@]5(CC)C=CCN6CC[C@]43[C@@H]65)C2)C1 (some centres not stated) = -4.62
• Cc1ccc2c(c1)C(O)(C1COC(C)(C)CC1=O)C(=O)N2C (configuration not stated) = -0.06
• CSCC[C@H](NC(=O)OC(C)(C)C)C(=O)N1CCC(C(=O)N[C@@H](C)C(=O)O)CC1 = -16
• CCCCN(CCCC)CCCOC(=O)c1ccc(N)cc1 = 6.38
• N=c1c[n+](N2CCOCC2)[n-]o1 = 3.46
• CCOc1ccc(C(=O)N2CCCC2C(=O)O)cc1 (configuration not stated) = 1.45
• CCOC(=O)c1ncn2c1CN(C)C(=O)c1cc(F)ccc1-2 = -0.66
• CCNC(=O)c1c(N)sc2c1CCCCC2 = 9.58
• CC1=CC(=O)c2ccccc2C1=O = -9.12

###

Assay: cytosolic pH regulators acting via V-ATPase – S. cerevisiae, pHLuorin, HTS validation (AID 504600);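 also: plate controls were DMSO for no effect and reference compound for full effect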
Settings: V-ATPase proton transport, at 10 µM, stronger effect = higher value
The source made the active and inactive calls. Rule as the data show it: active = response above about 15%; inactive = the rest.
Measured Endpoint: response

* CSCCC(NC(=O)/C(=C/c1ccc2c(c1)OCO2)NC(=O)c1cccc([N+](=O)[O-])c1)C(=O)O (stereo not drawn) | 0.74% (inactive)
* O=C(CCC(=O)NCCO)NCCO | -3.85% (inactive)
* CCCN(CCC)C(=O)C(CCC(=O)O)NC(=O)c1ccccc1 (stereo not drawn) | -4.29% (inactive)
* Cc1coc2cc3oc(=O)c(CCC(=O)O)c(C)c3cc12 | -3.3% (inactive)
* CCN(CC)C(=O)c1sc(NC(=O)c2c(OC)cccc2OC)c(C#N)c1C | 12% (inactive)
* CC(C)OC(=O)C1C2C=CC3(CN(CC4CCCO4)C(=O)C13)O2 (stereo not drawn) | -0.97% (inactive)
* CCCN1CCC(NC(=O)Nc2ccc(Br)cc2)CC1 | 1.92% (inactive)
* CCNC(=S)N1CCN(CCN2C(=O)c3cccc4cccc(c34)C2=O)CC1 | 1.54% (inactive)

###

Assay: TOR pathway GLN3 branch reporter MEP2-GFP changes – S. cerevisiae, multiplex flow cytometry, primary screen (AID 1867);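 also: median GFP channel fluorescence of barcode-gated MEP2-GFP cells measured by flow cytometry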
Details: S. cerevisiae MEP2-GFP strain, 3 h, at 10 µM, stronger effect = higher value, 100% means same as DMSO wells
Records with an inconclusive call do not appear.
Catalogue of GFP response vs DMSO values
Measured Endpoint: GFP response vs DMSO (%)

• O=C(NCCN1CCN(c2ccccc2)CC1)c1cccc(Br)c1 = 158
• CC(=O)N(C(C)=O)c1nc2nc(C)cc(C)n2n1 = 133
• COc1ccccc1C(CCN(Cc1ccccc1)C(C)=O)c1ccco1 (stereo unspecified) = 130
• COc1ccc(CCNc2ncnc3c2[nH]c2cc(OC)c(OC)cc23)cc1OC = 126
• OCCN(Cc1nc(-c2ccc3c(c2)OCO3)no1)Cc1cccs1 = 102
• Cc1ccc(Nc2ncccc2C(=O)O)cc1C = 123
• CC(C)(C)OC(=O)COc1cc(OCC(=O)OC(C)(C)C)c2c(=O)cc(-c3ccccc3)oc2c1 = 107
• CC(=O)[C@H]1CC[C@H]2[C@@H]3CCC4=CC(=O)CC[C@]4(C)[C@H]3CC[C@]12C = 108
• CC(=O)CC(c1ccc([N+](=O)[O-])cc1)c1c(O)c2ccccc2oc1=O (stereo unspecified) = 105
• CN1CCN2c3ccccc3Cc3ccccc3C2C1 (stereo unspecified) = 146
• COc1ccc(CCN(C)Cc2nc(Cc3ccc(OC)c(OC)c3)no2)cc1OC = 105
• COC(=O)c1sccc1NC(=O)Nc1ccccc1F = 103
• CC(C)(C)C(=O)NCCCNc1ccc([N+](=O)[O-])cc1 = 123
• O=C(Cc1ccccc1[N+](=O)[O-])NCc1ccncc1 = 101
• Nc1[nH]c(=O)ncc1F = 107
• CCC(=O)c1ccc(OCc2ccc(C(=O)OC)cc2)cc1 = 104
